Tested on: 556581-035-R-J1-PDC spheroids with HUVEC/MSC, viability;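 note: spheroids exposed to compounds for 7 days before readout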
test.protocol: Anticancer human tumor 556581-035-R-J1-PDC patient-derived ovarian carcinoma cell line growth inhibition [IpAb]
applied.conditions: second compound 1 µM; first compound 0.1 µM; hits give low values
Provide the reported viability, T/C of each item.
One number for each entry, in %.

Past entries and their recorded results:
compound	result.unit	experimental.result
COc1c(OCCCN2CCOCC2)ccc2c3n(c(=NC(=O)c4cnc(N)nc4)nc12)CCN3 + CC(C)NCC(C(=O)N1CCN(c2ncnc3c2C(C)CC3O)CC1)c1ccc(Cl)cc1	%	36.3
Cn1nccc1Nc1nccc(-c2ccn(C(CO)c3ccc(Cl)c(F)c3)c(=O)c2)n1 (stereo not drawn) + CC(C)NCC(C(=O)N1CCN(c2ncnc3c2C(C)CC3O)CC1)c1ccc(Cl)cc1	%	61.6

Kindly consider the entry below.
The reported viability, T/C of the compound Cn1ncnc1[C@H]1c2n[nH]c(=O)c3cc(F)cc(c23)N[C@@H]1c1ccc(F)cc1 + CC(C)NCC(C(=O)N1CCN(c2ncnc3c2C(C)CC3O)CC1)c1ccc(Cl)cc1 was 55.4

These data points were gathered from PubChem BioAssay AID2060338.
